Data provenance: patent US20250163077A1

Please go through the items and note down their IC50.

Query: Report the value of IC50 obtained on WEE1 (Homo sapiens (Human), UniProt P30291) for Cc1ccc(O)c(C)c1-n1c(N)c(C(=O)N2CCn3ncc(CO)c3C2)c2nc(C)c(C)nc21 .
Sequence (P30291 whole entry): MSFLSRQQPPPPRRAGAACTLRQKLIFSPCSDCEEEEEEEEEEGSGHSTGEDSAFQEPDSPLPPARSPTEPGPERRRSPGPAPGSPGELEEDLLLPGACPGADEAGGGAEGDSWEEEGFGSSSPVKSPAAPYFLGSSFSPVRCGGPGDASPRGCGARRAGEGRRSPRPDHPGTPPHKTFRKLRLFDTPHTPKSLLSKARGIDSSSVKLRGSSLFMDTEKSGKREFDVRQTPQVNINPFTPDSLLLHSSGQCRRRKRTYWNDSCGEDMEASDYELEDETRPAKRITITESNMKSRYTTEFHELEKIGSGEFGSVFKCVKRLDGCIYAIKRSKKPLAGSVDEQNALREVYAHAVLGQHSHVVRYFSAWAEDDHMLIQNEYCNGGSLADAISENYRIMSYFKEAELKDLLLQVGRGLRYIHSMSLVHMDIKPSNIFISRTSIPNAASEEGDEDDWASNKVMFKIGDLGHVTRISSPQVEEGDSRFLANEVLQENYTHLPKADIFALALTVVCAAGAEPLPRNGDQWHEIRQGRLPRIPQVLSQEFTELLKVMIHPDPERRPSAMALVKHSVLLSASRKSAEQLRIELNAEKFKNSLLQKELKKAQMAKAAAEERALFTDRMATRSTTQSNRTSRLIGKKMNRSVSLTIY
Reply: > 10 µM

Query: Quote IC50 with test system WEE1 (Homo sapiens (Human), UniProt P30291) for Cc1cc2n(n1)CCN(C(=O)c1c(N)n(-c3c(C)ccc(O)c3C)c3ncc(Cl)cc13)C2
Reply: > 10 µM

Query: Look up and report IC50, with WEE1 (Homo sapiens (Human), UniProt P30291) as system, for Cc1ccc(O)c(C)c1-n1c(N)c(C(=O)N2CCc3ncsc3C2)c2nc(C)c(C)nc21
Reply: > 10 µM

Query: Provide WEE1 (Homo sapiens (Human), UniProt P30291) IC50 reading for Cc1ccc(O)c(Cl)c1-n1c(N)c(C(=O)N2CCn3nccc3C2)c2nc(C)c(C)nc21 .
Reply: 5.43 µM

Query: Recall the reported IC50 of Cc1cc(F)c(O)c(C)c1-n1c(N)c(C(=O)N2CCn3nccc3C2)c2nc(C)c(C)nc21 on WEE1 (Homo sapiens (Human), UniProt P30291) and write it down.
Reply: > 10 µM

Query: Fill in: IC50 on WEE1 (Homo sapiens (Human), UniProt P30291), entry Cc1ccc(O)c(C)c1-n1c(N)c(C(=O)N2CCn3nccc3C2C)c2nc(C)c(C)nc21 (stereo not drawn)
Reply: > 10 µM
